In this section we review reported Decomposition efficiency of genistin family in defatted soybean values for a set of compounds.
Test system: Crude diglycosidase
method_notes: Examination of pH in the conversion into isoflavone aglycons by diglycosidase using soybean materials
Format: biochemical, Penicillium multicolor IAM7153
Design: concentration or dose not given beside the values
condition_parameters: pH6.6; heat treatment of enzyme: yes; reaction time 6 h
# value in %; strip the unit string

Illustrative cases are given below, each with its answer.
O=c1c(-c2ccc(O)cc2)coc2cc(O[C@@H]3O[C@H](CO)[C@@H](O)[C@H](O)[C@H]3O)cc(O)c12: 7.7
O=C(O)CC(=O)OC[C@H]1O[C@@H](Oc2cc(O)c3c(=O)c(-c4ccc(O)cc4)coc3c2)[C@H](O)[C@@H](O)[C@@H]1O: 45.7

Task item: Recorded Decomposition efficiency of genistin family in defatted soybean of CC(=O)OC[C@H]1O[C@@H](Oc2cc(O)c3c(=O)c(-c4ccc(O)cc4)coc3c2)[C@H](O)[C@@H](O)[C@@H]1O , please.
Reply: 0.2

Task item: Looking for the measured Decomposition efficiency of genistin family in defatted soybean of O=c1c(-c2ccc(O)cc2)coc2cc(O)cc(O)c12 , can you help?
Reply: 46.4

---

System: Crude diglycosidase
method_notes: Examination of substrate concentration in the conversion into isoflavone aglycons by diglycosidase using soybean materials;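 note: percent of the isoflavone family total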
Type: biochemical, Penicillium multicolor IAM7153
condition_parameters: soymilk, substrate concentration 2%, heat treatment of enzyme no, reaction time 3 h
measurement_name: Decomposition efficiency: ratio of each glycoside/aglycon within its isoflavone family

O=c1c(-c2ccc(O)cc2)coc2cc(O[C@@H]3O[C@H](CO)[C@@H](O)[C@H](O)[C@H]3O)cc(O)c12 [genistin]: not detected
CC(=O)OC[C@H]1O[C@@H](Oc2ccc3c(=O)c(-c4ccc(O)cc4)coc3c2)[C@H](O)[C@@H](O)[C@@H]1O [acetyl-daidzin]: not detected
O=C(O)CC(=O)OC[C@H]1O[C@@H](Oc2ccc3c(=O)c(-c4ccc(O)cc4)coc3c2)[C@H](O)[C@@H](O)[C@@H]1O [malonyldaidzin, 6″-O-malonyldaidzin]: 9.9%
COc1cc2c(=O)c(-c3ccc(O)cc3)coc2cc1O[C@@H]1O[C@H](COC(C)=O)[C@@H](O)[C@H](O)[C@H]1O [acetyl-glycitin]: not detected
COc1cc2c(=O)c(-c3ccc(O)cc3)coc2cc1O[C@@H]1O[C@H](CO)[C@@H](O)[C@H](O)[C@H]1O [glycitin]: not detected
CC(=O)OC[C@H]1O[C@@H](Oc2cc(O)c3c(=O)c(-c4ccc(O)cc4)coc3c2)[C@H](O)[C@@H](O)[C@@H]1O [acetyl-genistin]: not detected

Now, please, on to the next compound.
Task item: Data request, read-out Decomposition efficiency: ratio of each glycoside/aglycon within its isoflavone family, for COc1cc2c(=O)c(-c3ccc(O)cc3)coc2cc1O [glycitein]
Reply: 100.0%

---

# aglycon per entry
System: β-Glucosidase derived from almond
method_notes: Reactivity toward various isoflavone glycosides (HPLC)
Type: biochemical
Set-up: unit not given here
condition_parameters: Reaction time 6 h; 55 °C, pH 4.0
# output: bare number, no unit

Sample answers from the record:
O=c1c(-c2ccc(O)cc2)coc2cc(O[C@@H]3O[C@H](CO)[C@@H](O)[C@H](O)[C@H]3O)ccc12 [daidzin]: 11.3
COc1cc2c(=O)c(-c3ccc(O)cc3)coc2cc1O[C@@H]1O[C@H](COC(=O)CC(=O)O)[C@@H](O)[C@H](O)[C@H]1O [malonylglycitin, 6″-O-malonylglycitin]: 0

Now look at this entry.
Task item: Which aglycon is listed for O=c1c(-c2ccc(O)cc2)coc2cc(O[C@@H]3O[C@H](CO)[C@@H](O)[C@H](O)[C@H]3O)cc(O)c12 [genistin] ?
Reply: 11.8
